Reference for the values: patent US20140017242A1

- assay.target: T1, human BKB2R-derived epitope peptide (SEQ ID NO:73), PEG-biotin (human, also: PEG-biotin, site not given here)
- T1 construct: also called immunogenic human BKB2R peptide fragment
- T1 peptide: KEYSDEGHNVTAC
- test.details: BLI (Octet), peptide-PEG-biotin on streptavidin sensor, antibody 250 nM
- Description: For the Octet study, antibodies were analyzed by kinetic titration of the antibodies. […] Sensor Prep: Streptavidin biosensors (FortéBio Inc, Menlo Park, Calif.) were coated by incubation in a solution containing a peptide ([…]-PEG-biotin) (Biosyn, Lewisville, Tex.) at 50 μg/ml (300 seconds/1000 rpm shaking). […] Octet system software calculated kinetic constants for on rate/off rate/affinity. […]
Where no end group is shown, it is not given here.
Here, each record is paired with measured kon data.
Please give the number followed by its unit.

Example cases with answers are listed next.
{"columns": ["binder", "kon"],
 "data": [
  ["humanized anti-BKB2R antibody L1/H2 (antibody, human IgG2, kappa, V domains shown) VH: EVQLVESGGGLVQPGGSLRLSCVASGFTFSDYWMSWVRQAPGKGLEWVAEIRLKSDNYATHYAESVKGRFTISRDDAKNSLYLQMNSLRAEDTAVYYCTRDYYAMEYWGQGTLVTVSS VL: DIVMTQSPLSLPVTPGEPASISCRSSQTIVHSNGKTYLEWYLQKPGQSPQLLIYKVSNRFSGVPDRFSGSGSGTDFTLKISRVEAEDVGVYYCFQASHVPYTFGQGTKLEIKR", "350000 M⁻¹ s⁻¹"],
  ["humanized anti-BKB2R antibody L2/H2 (antibody, human IgG2, kappa, V domains shown, also called H2/L2) VH: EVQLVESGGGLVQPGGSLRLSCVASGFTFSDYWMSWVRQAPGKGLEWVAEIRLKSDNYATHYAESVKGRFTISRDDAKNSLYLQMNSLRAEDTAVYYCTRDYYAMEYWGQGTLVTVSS VL: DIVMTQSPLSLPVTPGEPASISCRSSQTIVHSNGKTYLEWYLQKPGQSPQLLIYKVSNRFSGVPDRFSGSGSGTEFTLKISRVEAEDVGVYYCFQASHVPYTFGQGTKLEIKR", "1.76e+06 M⁻¹ s⁻¹"]
]}

# ---- query binder ----
Provide measured kon value, entry: chimeric/humanized anti-BKB2R antibody L1/HC (antibody, human IgG2, V domains shown, not shown: human IgG2 constant region) VH: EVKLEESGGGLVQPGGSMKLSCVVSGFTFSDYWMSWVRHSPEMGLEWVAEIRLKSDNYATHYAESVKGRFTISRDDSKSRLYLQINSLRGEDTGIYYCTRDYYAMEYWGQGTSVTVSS VL: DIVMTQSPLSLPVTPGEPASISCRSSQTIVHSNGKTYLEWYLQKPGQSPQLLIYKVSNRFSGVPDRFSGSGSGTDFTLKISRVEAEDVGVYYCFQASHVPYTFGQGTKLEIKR
239000 M⁻¹ s⁻¹
